cytotoxicity at 10 µM values for the compounds below.
assay: Toxicity liver stage against HepG2, at 10uM; assay type: cell-based; design: test concentration 10 uM, cell line HepG2-A16-CD81EGFP; details: human, HepG2-A16-CD81EGFP cells; read-out: INHIBITION
observation-type: cytotoxicity at 10 µM (%)

NS(=O)(=O)CCCNC(=O)c1cnc(-c2ccsc2)s1 :: -9.59
CCCNC(=O)C1CCN(Cc2csc(CC)n2)CC1 :: -10.4
CCN(CCCNCc1c(C)nn(C)c1N(C)C)S(C)(=O)=O :: -6.89
CCc1nc(CC(=O)N2CCn3c(C)nnc3C2)cs1 :: -9.57
CC(C)N1CCC(C(=O)NC[C@H]2CCc3ccccc3O2)CC1 :: 11.1
COCC1CN(Cc2ccc(C)o2)Cc2nnn(C)c21 (stereo unspecified) :: -4.53
CC(C)N(C)Cc1cc(=O)n2c(n1)CN(C(=O)c1ccc[nH]1)CCC2 :: -105
O=C(C[C@@H]1COC[C@H]2CN(Cc3ccncc3)C[C@@H]12)N1CCCC1 :: -2.3
COc1ccnc(N2CCC(OCCN3CCCCC3)C2)n1 (stereo unspecified) :: -44.9
CCCN1CCN(C(=O)c2cnccn2)[C@H]2CS(=O)(=O)C[C@H]21 :: -19.8
O=C(NC1CC1)[C@@H]1CCO[C@@H]2CCN(CCc3ccccc3)C[C@@H]21 :: 3.6

* * *

cytotoxicity at 10 µM values for the compounds below.
experiment: Toxicity liver stage against HepG2, at 10uM; format: cell-based; set-up: test concentration 10 uM, cell line HepG2-A16-CD81EGFP; settings: human, HepG2-A16-CD81EGFP cells; read-out: INHIBITION
observation-type: cytotoxicity at 10 µM (%)

Cc1ccc(C(=O)Nc2nnc(CC(C)C)s2)c(-n2cnnn2)c1C :: -147
FC(F)(F)c1nc(NC2CCCCC2)c2ccccc2n1 :: 29.7
c1coc(-c2nnc(CN(Cc3cccs3)CC3CCCO3)o2)c1 (stereo unspecified) :: 5.79
Cc1ccc(CN2CCc3c(C(=O)N(C)C)nn(C)c3C2)s1 :: -12.4
COc1ncccc1CNC(=O)c1c(C)oc(C)c1C :: -14.5
O=C(NCCCn1ccnc1)C1COCC(=O)N1Cc1ccccc1 (stereo unspecified) :: 12.3
Cc1csc2c(N3CCNC(C(=O)Nc4ccc(F)cc4)C3)ncnc12 (stereo unspecified) :: 12.7
Cc1cc(C)n(-c2ccc(C(=O)N3CCCC3c3cnn(C)c3)cc2)n1 (stereo unspecified) :: -7.41
CC(C)c1cc(C(=O)N2CCN(c3ccncc3)CC2)n(C)n1 :: -3.5
COCCn1cc(C(=O)N2CCCC2c2ccccc2C)ccc1=O (stereo unspecified) :: 7.69
CC(O)CN1CCc2onc(C(c3ccccc3)c3ccccc3)c2C1 (stereo unspecified) :: -1.49

* * *

assay: Toxicity liver stage against HepG2, at 10uM; type: cell-based; set-up: test concentration 10 uM, cell line HepG2-A16-CD81EGFP; conditions: human, HepG2-A16-CD81EGFP cells; read-out: INHIBITION
observation-type: cytotoxicity at 10 µM (%)

COCCN1CCN(c2nc(C3CCCC3)nc3c2cnn3C)CC1 :: -1.91
CN1CCN(S(=O)(=O)c2cccnc2)c2cnccc21 :: -0.376
CNC(=O)NCC1CCC2(CCN(C(=O)c3cccnc3)CC2)CO1 (centres undefined) :: -94.9
COc1ccccc1C(C)NC(=O)NCCC(=O)NC1CCCCC1 (centres undefined) :: 0.0119
CC(NC(=O)NCCN1CCCC1)c1nncn1C (centres undefined) :: -5.68
CC(C)OCCCNC(=O)C1CCCN(c2ccc3nncn3n2)C1 (centres undefined) :: 1.77
c1cnc2nc(N3CCc4c(ncn4C4CC4)C3)ccc2n1 :: 6.47
Cc1n[nH]c(C)c1CCNC(=O)C1CCCN(Cc2ccco2)C1 (centres undefined) :: -6.23
CC(C)(C)OCCN1CCCC1c1nc(Cc2ccc(F)cc2)no1 (centres undefined) :: -7.1
CC(C)n1cc(C(=O)N2Cc3ccccc3OC3(CCOCC3)C2)cn1 :: 6.61
CN(Cc1nccn1C)C(CO)c1cccc(Br)c1 (centres undefined) :: -1.29
Cc1occc(=O)c1OCc1noc(C(=O)NCC(C)C)n1 :: 6.43
COc1ncnc2c1CCN(CC1CCOC1)CC2 (centres undefined) :: -68.9
Cc1ncc(CN2CCC(O)(c3ccccc3F)CC2)cn1 :: 0.46
NC(=O)CN1CCCC(Cc2ccc(N)nn2)C1 (centres undefined) :: -31.1
CCNC(c1ccc(OC)cc1)c1cccnc1 (centres undefined) :: -3.54
Cc1nc(CN2CCO[C@@H]3CN(Cc4cccs4)C[C@@H]3C2)cs1 :: 6.11
Cc1ccc(N2CC[C@H]3O[C@@H](C(=O)NCc4ccco4)CC[C@H]32)nn1 :: 2.03
O=C(NCCNc1ncccn1)C1CC(=O)N(CC2CC2)C1 (centres undefined) :: -14
CCc1cnc(NCCS(=O)(=O)N(C)C)nc1 :: -10.2
Cc1ccc(C2(O)CCN(C(=O)c3sccc3S(N)(=O)=O)CC2)nc1 :: -3.3
Cc1nc(CN2CCO[C@H]3CN(C(=O)c4ccncc4)C[C@H]32)cs1 :: -146
CCc1cnc(N)nc1NCc1ccc(OC)c(OC)c1 :: 3.48
O=C(NCC1CC1)C1CN(C(=O)c2ccncc2)CC12CCOCC2 (centres undefined) :: 0.381
